- TARGET_OR_SYSTEM: human mGlu5a receptor (Homo sapiens)
- Construct: expressed in transfected cells
- Sequence (P41594 21-1180 isoform P41594-2 limits assumed): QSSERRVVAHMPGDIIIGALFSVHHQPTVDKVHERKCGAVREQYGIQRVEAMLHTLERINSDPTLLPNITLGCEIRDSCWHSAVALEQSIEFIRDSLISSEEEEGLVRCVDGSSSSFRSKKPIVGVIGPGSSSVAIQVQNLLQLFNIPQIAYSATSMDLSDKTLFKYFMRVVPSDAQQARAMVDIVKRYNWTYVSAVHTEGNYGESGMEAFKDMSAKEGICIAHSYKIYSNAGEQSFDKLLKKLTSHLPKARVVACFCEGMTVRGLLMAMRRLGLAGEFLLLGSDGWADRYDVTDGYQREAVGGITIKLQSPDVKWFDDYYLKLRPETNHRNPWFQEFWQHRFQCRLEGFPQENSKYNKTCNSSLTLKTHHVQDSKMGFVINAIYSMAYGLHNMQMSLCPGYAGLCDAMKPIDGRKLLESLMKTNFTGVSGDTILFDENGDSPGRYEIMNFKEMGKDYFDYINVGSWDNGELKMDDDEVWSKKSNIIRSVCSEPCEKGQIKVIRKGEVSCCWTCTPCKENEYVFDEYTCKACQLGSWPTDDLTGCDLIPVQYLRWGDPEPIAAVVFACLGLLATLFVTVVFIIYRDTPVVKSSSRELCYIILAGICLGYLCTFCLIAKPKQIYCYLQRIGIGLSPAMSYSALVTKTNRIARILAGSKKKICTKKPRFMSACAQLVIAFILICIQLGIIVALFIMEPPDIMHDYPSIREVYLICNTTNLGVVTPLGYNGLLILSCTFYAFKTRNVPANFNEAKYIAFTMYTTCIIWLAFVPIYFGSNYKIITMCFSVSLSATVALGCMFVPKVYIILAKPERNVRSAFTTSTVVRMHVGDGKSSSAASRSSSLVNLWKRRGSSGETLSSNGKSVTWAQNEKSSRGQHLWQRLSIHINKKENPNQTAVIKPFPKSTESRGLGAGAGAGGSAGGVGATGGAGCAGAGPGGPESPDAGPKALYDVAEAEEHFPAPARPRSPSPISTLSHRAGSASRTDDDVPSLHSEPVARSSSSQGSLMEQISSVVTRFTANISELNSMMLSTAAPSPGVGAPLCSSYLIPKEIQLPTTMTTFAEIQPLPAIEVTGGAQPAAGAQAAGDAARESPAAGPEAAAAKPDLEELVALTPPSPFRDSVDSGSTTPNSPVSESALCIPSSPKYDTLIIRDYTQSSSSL
- METHOD: Intracellular Ca2+ mobilization assay (mGlu5 PAM)
- Assay type: cell-based
- CONDITION_CONTEXT: HEK-293 cells stably transfected with human mGlu5a; L-glutamate added at EC20 after 10-30 min pre-incubation with test compound; read-out: EC50 (nM) mGlu5PAM
PARAMETER_MEASURED: EC50 (nM)

- Cc1cc2ncc(C#Cc3ccccc3F)cn2n1: 47
- CC(C)(C)c1nc2ncc(C#Cc3ccc(F)c(F)c3)cn2n1: 28
- COc1ccc(C#Cc2cnc3cc(C(C)(C)C)nn3c2)cc1: 68
- CC(C)(C)c1cc2ncc(C#Cc3cc(F)ccc3F)cn2n1: 39
- Clc1cccc(C#Cc2cnc3nc(N4CCOCC4)nn3c2)c1: 39
